System: EfPiwi piRISC loaded with piRNA #1 (26 nt)
methodSummary: pre-steady-state target cleavage rate (min^-1); auxiliary factor: 500 nM Ephydatia muelleri Gtsf1; guide: piRNA #1 5'p-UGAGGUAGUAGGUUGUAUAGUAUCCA; higher = faster piRNA-guided slicing of the target
Class assignment keyed on pre-steady-state target cleavage rate, ranges low end (below 0.004), middle (0.004 to below 0.007), high end (0.007 or more)

Below are worked cases with known answers.
GGAGACCUAACUAUACCACCUACUACCUCA	middle
GGAGUGGAUACUAUACAACCUACUACCCCA	high end
GGAGAGGAUACAAUACAACCUACUACCUGA	low end
GGAGAGGAUACUAUACAACCUACUUGGAGA [g7:g25:cont:t1A]	low end
GGAGAGGAUACUUUACAACCUACAACCUCA	low end

Tag the class for `GGAGAGGAUACAUACAACCUACUACCUCA` high end

Tag the class for `GGAGAGGAUACUAUACAGCCUACUACCUCA` high end

Tag the class for `GGAGACCUUACUAUACAACGUACUACGUCA` low end

Tag the class for `GGAGACCUAUCUAUACAACCUACUACCCCA` middle

Tag the class for `GGAGUGCAUACUAUACAACCUACUACCUCA` high end

Tag the class for `GGAGACGAUACUAUACUACCUACUACGUCA` low end

Tag the class for `GGAGAGGAUACUGAUACAACCUACUACCUCA` middle

Tag the class for `GGAGUGGAUACUAUACAACCUACAAGCUCA` low end

Tag the class for `GGAGUGGAUACUAUAGAACCUACUAGCUCA` low end

Tag the class for `GGAGAGGAUACUUUACAUCCUACUACCUCA` middle

Tag the class for `GGAGUGGAUACAAUACAACCUACUAGCUCA` low end

Tag the class for `GGAGAGGAUUGAAUACAACCUACUACCUCA` high end

Tag the class for `GGAGUGGAUAGUAUACAACCUAGUACCUCA` low end

Tag the class for `GGAGAGGAUCCUAUACAACCUACUACCUCA` high end

Tag the class for `GGAGACCUAUCUAUACAACCUACUACCUGA` middle

Tag the class for `GGAGAGGAUACUAUACAACCUGCUACCUCA` high end

Tag the class for `GGAGACCAUCUAUACAACCUACUACCUCA` high end

Tag the class for `GGAGAGCAUACUAUACAACCUACUACGUCA` low end

Tag the class for `GGAGACGAUACUAUACAACCUACUUCCUCA` middle

Tag the class for `GGAGAGGAUACGUAUACAACCUACUACCUCA` high end

Tag the class for `GGAGACGAUACUAUACUACCUUCUACCUCA` middle

----------
Tested on: MILI (PIWIL2) piRISC loaded with L1MC piRNA (26 nt);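 further: 1 nM active piRISC with 0.1 nM target library at 33 °C single turnover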
methodSummary: pre-steady-state target cleavage rate (min^-1); guide: L1MC piRNA 5'p-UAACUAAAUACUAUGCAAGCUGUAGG; higher = faster piRNA-guided slicing of the target
conditionsUsed: auxiliary factor: none (no GTSF1)
assayReadout: pre-steady-state target cleavage rate
Please give the numeric answer without any surrounding text.

Worked cases, answers included:
UCCUCCUACUGCUAGCAUAGUAUUUAGUUA	0.006
UCCUGGAUCAGCUUGCAUUGUUUUUAGUUA	0.00431
UCCUGGAUGUCCGUUGCAUAGUAUUUAGUUA	0.008
UCCUGCUACAGCUUGCAUAGUAUUUGGUUA	0.00697
UCCUGGAUGUGCUAGGAUAGUAUUUAGUUA	0.00564

Could you tell me which pre-steady-state target cleavage rate is on file for `UCCUCCUACACUUGCAUAGUAUUUAGUUA` ? 0.00564

Could you tell me which pre-steady-state target cleavage rate is on file for `UCCUGGAUCAGCUUGCAAAGUAUUUAGUAA` ? 0.00426

Could you tell me which pre-steady-state target cleavage rate is on file for `UCCUGGAUCAGCUUGCUUAGUAUUAAGUUA` ? 0.00516

Could you tell me which pre-steady-state target cleavage rate is on file for `UCCUGGAUGUGCUAGCAUAGUUUUUAGUUA` ? 0.00466

Could you tell me which pre-steady-state target cleavage rate is on file for `UCCUGGAUGUGCUUGCAAAGUAUUUACUUA` ? 0.00362

----------
Test system: MILI (PIWIL2) piRISC loaded with L1MC piRNA (26 nt);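 further: 1 nM active piRISC with 0.1 nM target library at 33 °C single turnover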
methodSummary: pre-steady-state target cleavage rate (min^-1); guide: L1MC piRNA 5'p-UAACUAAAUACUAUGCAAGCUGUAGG; higher = faster piRNA-guided slicing of the target
conditionsUsed: auxiliary factor: none (no GTSF1)
Overview of recorded pre-steady-state target cleavage rate for various sequences

Worked cases, answers included:
UCCUGGAUGUCGAACCAUACUAUUUAGUUA	< 0.0001
UCCUGGAUGUCGAAGCAUAGUAAAAUCAAA [g9:g16:cont:t1A]	< 0.0001

Could you tell me which pre-steady-state target cleavage rate is on file for `UCCUGGAUGUCGAACGUUAGUAUAUUGUUA` ? < 0.0001

----------
Tested on: MILI (PIWIL2) piRISC loaded with piRNA #1 (26 nt);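 further: 1 nM active piRISC with 0.1 nM target library at 33 °C single turnover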
methodSummary: pre-steady-state target cleavage rate (min^-1); guide: piRNA #1 5'p-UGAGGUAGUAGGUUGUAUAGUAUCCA; higher = faster piRNA-guided slicing of the target
conditionsUsed: auxiliary factor: 500 nM mouse GTSF1
Overview of recorded pre-steady-state target cleavage rate for various sequences
Please give the numeric answer without any surrounding text.

Worked cases, answers included:
GGAGACCUAACUAAACAAGCUACUACCUCA	0.15
GGAGACCUAACUAUACAACCUACUUCGUCA	0.0423
GGAGACCUAUGAAUCACAACCUACUACCUCA	0.0111
GGAGACCAUACUAUUGAACCUACUACCUCA	0.153

Could you tell me which pre-steady-state target cleavage rate is on file for `GGAGACGAUACUAUACAACCUACUCACCUCA` ? 0.122

Could you tell me which pre-steady-state target cleavage rate is on file for `GGAGUGGAUACUAUACAAGCUACUAGCUCA` ? 0.0419

Could you tell me which pre-steady-state target cleavage rate is on file for `GGAGAGGAUACUAUAGUACCUACUACCUCA` ? 0.159

Could you tell me which pre-steady-state target cleavage rate is on file for `GGAGACCAUACUAUGCAACCUACUACCUCA` ? 0.174

Could you tell me which pre-steady-state target cleavage rate is on file for `GGAGAGGAGACUAUACAACCUACUACCUCA` ? 0.25

Could you tell me which pre-steady-state target cleavage rate is on file for `GGAGUGGAUACUAUUGUACCUACUACCUCA` ? 0.115

Could you tell me which pre-steady-state target cleavage rate is on file for `GGAGUGGUUACUAUACUACCUACUACCUCA` ? 0.183

Could you tell me which pre-steady-state target cleavage rate is on file for `GGAGACCUUACUAUUCAACCUACUUCCUCA` ? 0.0623

Could you tell me which pre-steady-state target cleavage rate is on file for `GGAGACCUAUCUCUACAACCUACUACCUCA` ? 0.0688

Could you tell me which pre-steady-state target cleavage rate is on file for `GGAGACGAUACUAUAGCAACCUACUACCUCA` ? 0.162

Could you tell me which pre-steady-state target cleavage rate is on file for `GGAGACCUAUGUAUAGAACCUACUACCACA` ? 0.0238

----------
Overview of recorded pre-steady-state target cleavage rate for various sequences
Tested on: MILI (PIWIL2) piRISC loaded with L1MC piRNA (26 nt);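 further: 1 nM active piRISC with 0.1 nM target library at 33 °C single turnover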
methodSummary: pre-steady-state target cleavage rate (min^-1); guide: L1MC piRNA 5'p-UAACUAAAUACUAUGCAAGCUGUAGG; MIWI and MILI are mouse PIWI proteins and EfPiwi is from a freshwater sponge; tags in brackets are library labels; higher = faster piRNA-guided slicing of the target
conditionsUsed: auxiliary factor: 500 nM mouse GTSF1

Worked cases, answers included:
UCCUGGAACAGCUUGCAUAGUAAAAUCAAA	0.0152
UCCUGGAUGAGCUUGCGUAGUAUUUAGUUA	0.119
UCCUGGUACAGGUUGCAUUGUAUUUAGUUA	0.175
UCCUGGUACAGCUUGUCAUAGUAUUUAGUUA	0.19
UCCUGGAUGUCGUUGCAUAGUAUUUCGUUA	0.0162

Could you tell me which pre-steady-state target cleavage rate is on file for `UCCUGGAUGUCGAUGCAUAGUAUUUAGUA` ? 0.0708

Could you tell me which pre-steady-state target cleavage rate is on file for `UCCUGGAUGAGCUUGGAUAGUAUUUUGUUA` ? 0.141

Could you tell me which pre-steady-state target cleavage rate is on file for `UCCUGCUACAGCAACCAUAGUAUUUAGUUA` ? 0.305

Could you tell me which pre-steady-state target cleavage rate is on file for `UCCUGGAUCAGCUUGCAUAGUAUCUUAGUUA` ? 0.234

Could you tell me which pre-steady-state target cleavage rate is on file for `UCCUCCUACAGCUAGCAUAGUAUUUACUUA` ? 0.15

Could you tell me which pre-steady-state target cleavage rate is on file for `UCCUGCUACAGCUUGCAUAUUAUUUAGUUA` ? 0.11

Could you tell me which pre-steady-state target cleavage rate is on file for `UCCUGGAACUGCAUGCAUAGUAUUUAGUUA` ? 0.224

Could you tell me which pre-steady-state target cleavage rate is on file for `UCCUGGAUGUGUUGCAUAGUAUUUAGUUA` ? 0.173

Could you tell me which pre-steady-state target cleavage rate is on file for `UCCUCCUAGCAGCUUGCAUAGUAUUUAGUUA` ? 0.295

Could you tell me which pre-steady-state target cleavage rate is on file for `UCCUGGUACUGCUUGCUUAGUAUUUAGUUA` ? 0.197
